# TARGET OR SYSTEM: T1, CEACAM1 antigen (Sino Biological, Inc.) (UniProt P13688 35-428)
# T1 construct: Bought antigen, coated on the ELISA plate; construct not described; also called CEACAM1 (CD66a) antigen; CD66a
# T1 sequence (looked up): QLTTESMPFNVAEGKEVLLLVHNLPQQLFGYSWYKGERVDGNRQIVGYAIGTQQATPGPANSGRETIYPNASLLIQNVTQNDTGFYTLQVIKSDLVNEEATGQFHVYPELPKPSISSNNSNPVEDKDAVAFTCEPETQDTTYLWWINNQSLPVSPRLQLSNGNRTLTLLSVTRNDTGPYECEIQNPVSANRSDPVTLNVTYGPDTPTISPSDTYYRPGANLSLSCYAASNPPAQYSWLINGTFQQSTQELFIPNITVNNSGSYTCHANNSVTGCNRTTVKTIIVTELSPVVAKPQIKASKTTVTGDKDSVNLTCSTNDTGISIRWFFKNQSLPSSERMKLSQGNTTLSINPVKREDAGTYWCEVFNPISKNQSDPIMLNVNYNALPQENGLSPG
# PROTOCOL DETAILS: ELISA, CEACAM1 coated 100 ng/well, antibody at 4.57 ng/ml
# Experimental: Antigen CD66c (CEACAM6; Sino Biological, Inc.) and CEACAM1 antigen (Sino Biological, Inc.) were coated on a 96-well plate at a rate of 100 ng per well and then blocked. The primary antibody was diluted 3-fold from 10 ug/ml and bound at 37° C. for 1 hour. […] The washing was carried out at three times between each step, and the TMB reaction was performed, stopped with 1N H₂SO₄ solution at the same amount of TMB solution (100 ul) and then OD value was measured at 450 nm.
MEASURED PROPERTY: OD 450 nm (OD 450 nm)
Reply with just the number (in OD 450 nm).

Ask: Which OD 450 nm value is on record for recombinant humanized anti-CD66c antibody Protein ID 3058 (Vk8 + VH11) (antibody, human IgG1, V domains shown, also called hu 3058; #86) VH: QVQLVQSGAEVKKPGASVKISCKASGYSFTDYTMHWVKQAPGQNLEWIGLINPFGGSTSYAQKFKGRVTMTRDTSTNTAYMELSRLRSDDTAVYYCVRGDPVRHYYALAYWGQGTLVTVSS VL: DIQMTQSPSTLSASVGDRVTITCRASENVYGTLNWYQRKPGKAPKLLIYGATNLADGMPSRFSGSGSGTEYTLTISSLQPDDFATYYCQNVLSAPYTFGGGTKLEIK ?
Reply: 0.05

Attribution: patent US20220119518A1
